Where do the numbers come from? From paper PMC7954794.

B1: S. cerevisiae Abp1 (full length; SH3 domain 535-592 mutated) / Hua2 (parent)
chain 1: MALEPIDYTTHSREIDAEYLKIVRGSDPDTTWLIISPNAKKEYEPESTGSSFHDFLQLFDETKVQYGLARVSPPGSDVEKIIIIGWCPDSAPLKTRASFAANFAAVANNLFKGYHVQVTARDEDDLDENELLMKISNAAGARYSIQTSSKQQGKASTPPVKKSFTPSKSPAPVSKKEPVKTPSPAPAAKISSRVNDNNDDDDWNEPELKERDFDQAPLKPNQSSYKPIGKIDLQKVIAEEKAKEDPRLVQKPTAAGSKIDPSSDIANLKNESKLKRDSEFNSFLGTTKPPSMTESSLKNDDDKVIKGFRNEKSPAQLWAERKAKQNSGNAETKAEAPKPEVPEDEPEGEPDVKDLKSKFEGLAASEKEEEEMENKFAPPPKKSEPTIISPKPFSKPQEPVKAEEAEQPKTDYKKIGNPLPGMHIEADNEEEPEENDDDWDDDEDEAAQPPLPSRNVASGAPVQKEEPEQEEIAPSLPSRNSIPAPKQEEAPEQAPEEEIEEEAEEAAPQLPSRSSAAPPPPPRRATPEKKPKENPWATAEYDYDAAEDNELTFVENDKIINIEFVDDDWWLGELEKDGSKGLFPSNYVSLGN
chain 2: MQQTKFGKMYLDHDSVVEYSEDEIVEADRITLGYKKRLSMIENQMRHLLEDFSLDVQQIEPILADLQKYYDAFLQLLQKRNKSLQCKRSTHQPVPSPMNSQTSTNAKVNLSGKLMKFQLNSVQKFDEENILRILQNKIEFEHYFQIDKGKKQKVLLLAVYQCLNGPTRLHKVLNIEGIIHNNSIRTILGKQVSSSKWTVFLYDVKLVLLAHRQDVPNLETSKMIVRYGDLFPCALYFKDHTAY

- Variants of: B1
- protocol_details: DHFR protein-fragment complementation in yeast (Abp1-DHFR F[1,2] x partner-DHFR F[3]), deep mutational scanning, second methotrexate selection vs reference
- condition_context: with Hua2; S. cerevisiae, DHFR-PCA selection in liquid with methotrexate at 30 C, two 72 h selections (the score uses the second); reference = the pre-selection culture; not an affinity; scale: DMS score: mean over two replicates of log2(f_test/f_ref + 0.5)/ln 2, minus the synonymous-codon median
readout_label: screen value

chain 1 S579Y; -2.71

I = chain 1 T552I
II = chain 1 G578E
III = chain 1 W536P
Rank order required: screen value, descending. Your answer should be the labels, listed in the requested order.
II, I, III
(II: -1.21, I: -1.99, III: -2.87)

P = chain 1 A537S
Q = chain 1 S579D
Between P and Q , whose measured screen value reads higher? Response format: the label of the selected entry.
Q
(Q: -1.27, P: -2.6)

A = chain 1 P584T
B = chain 1 L574A
// pick min by screen value: A , B Response format: the label of the selected entry.
A
